// reported pIC50 for each item listed
- study-target: CYP11B2 (aldosterone synthase) (Homo sapiens)
- Construct: the NCI-H295R cells have CYP11B2 (aldosterone synthase) and CYP11B1 (steroid 11-hydroxylase)
- Sequence (P19099 25-503): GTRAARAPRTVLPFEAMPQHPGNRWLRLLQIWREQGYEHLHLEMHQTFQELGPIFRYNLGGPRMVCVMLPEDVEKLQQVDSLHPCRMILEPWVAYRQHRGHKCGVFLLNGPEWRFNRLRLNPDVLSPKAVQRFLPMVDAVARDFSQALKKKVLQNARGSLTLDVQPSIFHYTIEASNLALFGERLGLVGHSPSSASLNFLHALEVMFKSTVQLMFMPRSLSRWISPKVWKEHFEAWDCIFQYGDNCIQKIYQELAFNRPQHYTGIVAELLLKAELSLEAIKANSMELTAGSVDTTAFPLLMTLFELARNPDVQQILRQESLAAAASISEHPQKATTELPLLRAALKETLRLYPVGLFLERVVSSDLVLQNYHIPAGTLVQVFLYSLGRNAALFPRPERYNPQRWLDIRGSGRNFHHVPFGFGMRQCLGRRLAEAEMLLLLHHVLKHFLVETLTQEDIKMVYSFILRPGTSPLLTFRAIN
- test-details: Inhibition of aldosterone secretion in NCI-H295R cells
- experimental-parameters: human adrenocortical carcinoma NCI-H295R cells, 24 hours with cell stimulant
pIC50: −log10 of the molar value.
readout-kind: pIC50

INSERT INTO assay_data (molecule, study_target, readout_kind, reported_result) VALUES
  ('COc1cncc(-c2cc3ccccc3n2C)c1 [Example 101]', 'CYP11B2 (aldosterone synthase) (Homo sapiens)', 'pIC50', 8.70),
  ('Cn1c(-c2cncc(CNS(=O)(=O)CC(F)(F)F)c2)cc2ccc(Cl)cc21 [Example 209]', 'CYP11B2 (aldosterone synthase) (Homo sapiens)', 'pIC50', 7.64),
  ('Cn1c(-c2cncc(OS(C)(=O)=O)c2)c(C#N)c2ccccc21 [Example 138]', 'CYP11B2 (aldosterone synthase) (Homo sapiens)', 'pIC50', 7.37),
  ('CCS(=O)(=O)Nc1cncc(-c2c(C)c3ccccc3n2C)c1 [Example 236]', 'CYP11B2 (aldosterone synthase) (Homo sapiens)', 'pIC50', 7.68),
  ('CN(C)S(=O)(=O)Nc1cncc(-c2cc3ccccc3n2C)c1 [Example 228]', 'CYP11B2 (aldosterone synthase) (Homo sapiens)', 'pIC50', 6.98),
  ('CC(C)C(=O)C1(CNc2cncc(-c3cc4ccccc4n3C)c2)CCC1 [Example 214]', 'CYP11B2 (aldosterone synthase) (Homo sapiens)', 'pIC50', 7.25),
  ('CCc1c(-c2cncc(NS(=O)(=O)CC)c2)n(C)c2ccccc12 [Example 229]', 'CYP11B2 (aldosterone synthase) (Homo sapiens)', 'pIC50', 8.30),
  ('CCS(=O)(=O)NCc1cncc(-c2c(C)c3ccccc3n2C)c1 [Example 237]', 'CYP11B2 (aldosterone synthase) (Homo sapiens)', 'pIC50', 8.30);

* * *

- study-target: CYP11B1 (steroid 11-hydroxylase) (Homo sapiens)
- Construct: the NCI-H295R cells have CYP11B2 (aldosterone synthase) and CYP11B1 (steroid 11-hydroxylase)
- Sequence (P15538 25-503): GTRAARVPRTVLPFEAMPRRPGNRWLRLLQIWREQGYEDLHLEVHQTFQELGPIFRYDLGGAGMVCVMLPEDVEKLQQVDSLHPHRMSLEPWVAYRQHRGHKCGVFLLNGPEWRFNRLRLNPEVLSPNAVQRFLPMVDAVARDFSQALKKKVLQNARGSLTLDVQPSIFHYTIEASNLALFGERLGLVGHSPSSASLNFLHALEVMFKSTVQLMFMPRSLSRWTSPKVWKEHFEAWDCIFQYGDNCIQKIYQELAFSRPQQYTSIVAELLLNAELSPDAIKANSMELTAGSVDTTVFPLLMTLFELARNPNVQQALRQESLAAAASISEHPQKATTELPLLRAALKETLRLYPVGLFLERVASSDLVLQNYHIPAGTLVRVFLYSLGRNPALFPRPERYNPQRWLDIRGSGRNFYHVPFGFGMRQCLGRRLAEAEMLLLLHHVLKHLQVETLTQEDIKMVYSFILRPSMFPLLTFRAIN
- test-details: Inhibition of cortisol secretion in NCI-H295R cells
- experimental-parameters: human adrenocortical carcinoma NCI-H295R cells, 24 hours with cell stimulant
Counter-ions that a name gives are not always drawn.
Consider the cut-off 100 nM. If the recorded IC50 is strictly smaller, the label is YES; if not, the label is NO.

INSERT INTO results (compound, assigned_category) VALUES
  ('Cn1c(-c2cnccc2Cl)cc2ccccc21', 'NO'),
  ('Cn1c(-c2cncc(Cl)c2)c(C#N)c2ccccc21', 'NO'),
  ('N#Cc1cccc(C(=O)n2c(-c3cccnc3)cc3cc(C#N)ccc32)c1', 'NO'),
  ('CCS(=O)(=O)Nc1cncc(-c2cc3ccccc3n2C)c1', 'NO'),
  ('COc1cncc(-c2cc3ccccc3n2C)c1', 'YES'),
  ('CC(C)S(=O)(=O)NCc1cncc(-c2c(C#N)c3ccc(Cl)cc3n2C)c1', 'NO'),
  ('CCc1c(-c2cncc(NS(=O)(=O)CC)c2)n(C)c2ccccc12', 'NO'),
  ('Cc1c(-c2cccnc2)n(COC(=O)C(C)(C)C)c2ccc(Cl)cc12', 'NO'),
  ('Cc1c(-c2cccnc2)n(Cc2cccc(C#N)c2)c2cc(F)ccc12 [Example 15, hydrochloride]', 'NO'),
  ('CC(C)C(=O)C1(CNc2cncc(-c3cc4ccccc4n3C)c2)CCC1', 'NO'),
  ('CC(C)NC(=O)NCc1cncc(-c2c(C#N)c3ccc(Cl)cc3n2C)c1', 'YES'),
  ('Cc1c(-c2cccnc2)[nH]c2ccc(C#N)cc12', 'YES'),
  ('COCCOC(=O)NCc1cncc(-c2c(C#N)c3ccc(Cl)cc3n2C)c1', 'YES'),
  ('CCS(=O)(=O)Nc1cncc(-c2c(C)c3ccccc3n2C)c1', 'NO'),
  ('Cn1c(-c2cncc(CN3CCN(S(C)(=O)=O)CC3)c2)c(C#N)c2ccc(Cl)cc21', 'YES'),
  ('CCS(=O)(=O)NCc1cncc(-c2cc3ccc(Cl)cc3n2C)c1', 'NO'),
  ('Cc1c(-c2cccnc2)n(Cc2ccc(C(=O)O)cc2)c2cccc(F)c12', 'NO'),
  ('CCS(=O)(=O)N(C)c1cncc(-c2cc3ccccc3n2C)c1', 'YES');
